Numbers sourced from patent US5595998A.

# target-or-test-system: ras p21 protein
# method: Ras p21 Nucleotide Exchange Assay (inhibition of ^3H-GDP binding to p21 ras)
# Format: biochemical
# test-context: table 1; concentration causing 50% inhibition of ^3H-GDP binding; read-out: Ras p21 Assay (IC50)
Give measured IC50 for each item. Keep answers brief.
Remember to quote the unit after the number.

Would you please look over these solved cases?
1) COc1ccc2nc3nn([C@@H]4O[C@H](COC(=O)c5ccccc5)[C@@H](OC(=O)c5ccccc5)[C@H]4OC(=O)c4ccccc4)c(C)c3c(Cl)c2c1 [Cl O(CO)Ph O(CO)Ph O(CO)Ph] | 10 µM
2) COc1ccc2nc3nn([C@@H]4O[C@H](COC(=O)c5ccccc5)[C@@H](OC(=O)c5ccccc5)[C@H]4OC(=O)c4ccccc4)c(C)c3c(O)c2c1 [OH O(CO)Ph O(CO)Ph O(CO)Ph] | 10 µM

Let us examine a further case.
Query: Input COc1ccc2nc3nn([C@@H]4O[C@H](COC(=O)c5ccccc5)[C@@H](OC(=O)c5ccccc5)[C@H]4OC(=O)c4ccccc4)c(C)c3cc2c1 [H O(CO)Ph O(CO)Ph O(CO)Ph] , output reported IC50.
Result: 8 µM

* * *

# Tested on: ras p21 protein
# method: Ras p21 Nucleotide Exchange Assay (inhibition of ^3H-GDP binding to p21 ras)
# Format: biochemical
# test-context: table 2; 100 μM
Label Satisfied when ras p21 Assay (per cent inhibition) is at or above 40%; anything below gets Not satisfied.

Example entries and their recorded answers appear below.
1) COc1ccc2nc3c(c(C)nn3[C@@H]3O[C@H](COC(=O)c4ccccc4)[C@@H](OC(C)=O)[C@H]3OC(C)=O)c(Cl)c2c1 [O(CO)Ph O(CO)CH3 O(CO)CH3] | Satisfied
2) COc1ccc2nc3c(c(C)nn3[C@@H]3O[C@H](COC(=O)c4ccccc4)[C@@H](OCc4ccccc4)[C@H]3OCc3ccccc3)c(Cl)c2c1 [O(CO)Ph CH2 Ph CH2 Ph] | Satisfied
3) COc1ccc2nc3c(c(C)nn3[C@@H]3O[C@H](CO)[C@H]4OC(C)(C)O[C@H]43)c(Cl)c2c1 [OH OC(CH3)2 O] | Not satisfied
4) COc1ccc(C(=O)OC[C@H]2O[C@@H](n3nc(C)c4c(Cl)c5cc(OC)ccc5nc43)[C@H](OC(=O)c3ccc(OC)cc3)[C@@H]2OC(=O)c2ccc(OC)cc2)cc1 | Satisfied
5) COc1ccc2nc3c(c(C)nn3[C@@H]3O[C@H](COC(=O)c4ccc([N+](=O)[O-])cc4)[C@@H](OC(=O)c4ccc([N+](=O)[O-])cc4)[C@H]3OC(=O)c3ccc([N+](=O)[O-])cc3)c(Cl)c2c1 [O(CO)Ph-4-NO2 (CO)Ph-4-NO2 O(CO)Ph-4-NO2] | Satisfied
6) COc1ccc2nc3c(c(C)nn3[C@@H]3O[C@H](COC(=O)c4cc(C)ccc4C)[C@@H](OC(=O)c4cc(C)ccc4C)[C@H]3OC(=O)c3cc(C)ccc3C)c(Cl)c2c1 | Not satisfied

Query: # check: ras p21 Assay (per cent inhibition) of COc1ccc2nc3c(c(C)nn3[C@@H]3O[C@H](COCc4ccccc4)[C@@H](OCc4ccccc4)[C@H]3OCc3ccccc3)c(Cl)c2c1 [CH2 Ph CH2 Ph CH2 Ph] is greater than or equal to 40%
Result: Not satisfied

Query: # check: ras p21 Assay (per cent inhibition) of COc1ccc2nc3c(c(C)nn3[C@@H]3O[C@H](COC(=O)Cc4ccccc4)[C@@H](OC(=O)Cc4ccccc4)[C@H]3OC(=O)Cc3ccccc3)c(Cl)c2c1 [O(CO)CH2 Ph (CO)CH2 Ph O(CO)CH2 Ph] is greater than or equal to 40%
Result: Satisfied

Query: # check: ras p21 Assay (per cent inhibition) of COc1ccc2nc3c(c(C)nn3[C@@H]3O[C@H](COC(C)=O)[C@@H](OC(C)=O)[C@H]3OC(C)=O)c(Cl)c2c1 [OCOCH3 O(CO)CH3 O(CO)CH3] is greater than or equal to 40%
Result: Not satisfied

Query: # check: ras p21 Assay (per cent inhibition) of COc1ccc2nc3c(c(C)nn3[C@@H]3O[C@H](COC(=O)c4ccccc4)[C@@H](O)[C@H]3O)c(Cl)c2c1 [O(CO)Ph OH OH] is greater than or equal to 40%
Result: Not satisfied

* * *

# target-or-test-system: ras p21 protein
# method: Ras p21 Nucleotide Exchange Assay (inhibition of ^3H-GDP binding to p21 ras)
# Format: biochemical
# test-context: table 4 (arabinose derivatives); concentration causing 50% inhibition of ^3H-GDP binding; read-out: p21 ras assay (IC50)
measure: IC50 (µM)
Give bare numbers, in µM.

Query: Input COc1ccc2nc3c(cc2c1)c(C)nn3[C@@H]1O[C@H](COC(=O)c2ccccc2)[C@@H](OC(=O)c2ccccc2)[C@@H]1OC(=O)c1ccccc1 , output reported IC50.
Result: 10

* * *

Give measured ras p21 Assay (per cent inhibition) for each item. Keep answers brief.
# Tested on: ras p21 protein
# method: Ras p21 Nucleotide Exchange Assay (inhibition of ^3H-GDP binding to p21 ras)
# Type: biochemical
# test-context: table 2; 50 μM
# Description: Ras p21 Nucleotide Exchange Assay The conditions for assay of nucleotide exchange inhibitors was adapted from Hall, A. and A. J. Self. 1986 J. Biol. Chem. 261: 10963-10965, which is hereby incorporated by reference. 0.5 μM ras p21 protein was incubated in 50 μls exhange buffer (50 mM Tris-HCl pH 7.5, 5 mM MgCl2, 50 mM NaCl and 10 EDTA) on ice. […]

Would you please look over these solved cases?
1) COc1ccc2nc3c(c(C)nn3[C@@H]3O[C@H](CNC(=O)c4ccccc4)[C@@H](O)[C@H]3O)c(Cl)c2c1 [O(CO)PhNH OH OH] | 24%
2) COc1ccc2nc3c(c(C)nn3[C@@H]3O[C@H](COC(=O)c4ccoc4)[C@@H](OC(=O)c4ccoc4)[C@H]3OC(=O)c3ccoc3)c(Cl)c2c1 [O(CO)-3-Fu O(CO)-3-Fu O(CO)-3-Fu] | 49%

Let us examine a further case.
Query: Input COc1ccc2nc3c(c(C)nn3[C@@H]3O[C@H](CNC(=O)c4ccccc4)[C@H]4OC(C)(C)O[C@H]43)c(Cl)c2c1 [O(CO)PhNH OC(CH3)2 O] , output reported ras p21 Assay (per cent inhibition).
Result: 56%

* * *

# Test system: ras p21 protein
# method: Ras p21 Nucleotide Exchange Assay (inhibition of ^3H-GDP binding to p21 ras)
# Type: biochemical
# test-context: table 2; 50 μM
Give measured ras p21 Assay (per cent inhibition) for each item. Keep answers brief.
Answers are plain numbers, in %.

1) COc1ccc2nc3c(c(C)nn3[C@@H]3O[C@H](CN)[C@H]4OC(C)(C)O[C@H]43)c(Cl)c2c1 | 38
2) COc1ccc2nc3c(c(C)nn3[C@@H]3O[C@H](COC(=O)c4cccnc4)[C@@H](OC(=O)c4cccnc4)[C@H]3OC(=O)c3cccnc3)c(Cl)c2c1 | 33

Let us examine a further case.
Query: Input COc1ccc2nc3c(c(C)nn3[C@@H]3O[C@H](COC(=O)CC(C)C)[C@@H](OC(=O)CC(C)C)[C@H]3OC(=O)CC(C)C)c(Cl)c2c1 , output reported ras p21 Assay (per cent inhibition).
Result: 33

* * *

# target-or-test-system: ras p21 protein
# method: Ras p21 Nucleotide Exchange Assay (inhibition of ^3H-GDP binding to p21 ras)
# Format: biochemical
# test-context: table 3; concentration causing 50% inhibition of ^3H-GDP binding; read-out: ras 21 assay (IC50)
Give measured IC50 for each item. Keep answers brief.
Remember to quote the unit after the number.

1. COc1ccc2nc3c(c(C)nn3[C@@H]3O[C@H](/C=C/C(=O)c4ccccc4)[C@@H](O)[C@H]3O)c(Cl)c2c1 | 10 µM

Let us examine a further case.
Query: Input COc1ccc2nc3c(c(C)nn3[C@H]3C=C[C@@H](/C=C/C(=O)c4ccccc4)O3)c(Cl)c2c1 , output reported IC50.
Result: 35 µM

* * *

# Tested on: ras p21 protein
# method: Ras p21 Nucleotide Exchange Assay (inhibition of ^3H-GDP binding to p21 ras)
# Format: biochemical
# test-context: table 1; at (100), unit not given
measure: Ras p21 Assay (per cent inhibition)

Would you please look over these solved cases?
1. COc1ccc2nc3nn([C@@H]4O[C@H](COC(=O)c5ccccc5)[C@H]5OC(=S)O[C@H]54)c(C)c3c(Cl)c2c1 [Cl O(CO)Ph OC(S)O] | 86%
2. COc1ccc2nc3nn([C@@H]4O[C@H](COC(=O)c5ccccc5)[C@@H](OC(C)=O)[C@H]4OC(C)=O)c(C)c3c(Cl)c2c1 [Cl O(CO)Ph OCOCH3 OCOCH3] | 20%
3. COc1ccc2nc3nn([C@@H]4O[C@H](CO)[C@@H](O)[C@H]4O)c(C)c3c(O)c2c1 [OH OH OH OH] | 49%
4. COc1ccc2nc3nn([C@@H]4O[C@H](COC(=O)c5ccccc5)[C@@H](O)[C@H]4O)c(C)c3c(Cl)c2c1 [Cl O(CO)Ph OH OH] | 49%

Query: Report Ras p21 Assay (per cent inhibition) on ras p21 protein for this entry: COc1ccc2nc3nn([C@@H]4O[C@H](CO)[C@@H](O)[C@H]4O)c(C)c3c(Cl)c2c1 [Cl OH OH OH]
Result: 0%
